Test: Retention time of the compound in Sprague-Dawley rat urine treated with [14C]-AMG 221 at 2 mg/kg, po after 12 hrs by LC-MS/HPLC radiometric analysis
Type: ADME, organism-based
Parameters: dose 2 mg/kg, route oral
Details: in vivo
MEASURED QUANTITY: Retention_time (min)
Field: numeric (min). Do not append units.

Quick note, Retention_time for CC(C)[C@]1(C)SC(N[C@H]2C[C@H]3C[C@@H]2C[C@@H]3O)=NC1=O landed at 30.3

# Retention_time of CC(C)[C@]1(C)SC(N[C@H]2C[C@H]3C[C@@H]2C[C@H]3O)=NC1=O = 30.9

For CC(C)[C@]1(C)SC(N[C@H]2C[C@H]3C[C@@H]2[C@H](O)C3)=NC1=O the molecule record lists Retention_time as 33

// recorded Retention_time for CC(C)[C@]1(C)SC(N[C@H]2C[C@H]3C[C@@H]2CC3=O)=NC1=O : 33.3

Measured Retention_time of C[C@@H](CO)[C@]1(C)SC(N[C@H]2C[C@@H]3CC[C@H]2C3)=NC1=O : 37.5

Lab note: C[C@H](CO)[C@]1(C)SC(N[C@H]2C[C@@H]3CC[C@H]2C3)=NC1=O gave Retention_time of 34.6
